Target: Endoplasmic reticulum aminopeptidase 1 (Homo sapiens, UniProt Q9NZ08)
Sequence (Q9NZ08 whole entry): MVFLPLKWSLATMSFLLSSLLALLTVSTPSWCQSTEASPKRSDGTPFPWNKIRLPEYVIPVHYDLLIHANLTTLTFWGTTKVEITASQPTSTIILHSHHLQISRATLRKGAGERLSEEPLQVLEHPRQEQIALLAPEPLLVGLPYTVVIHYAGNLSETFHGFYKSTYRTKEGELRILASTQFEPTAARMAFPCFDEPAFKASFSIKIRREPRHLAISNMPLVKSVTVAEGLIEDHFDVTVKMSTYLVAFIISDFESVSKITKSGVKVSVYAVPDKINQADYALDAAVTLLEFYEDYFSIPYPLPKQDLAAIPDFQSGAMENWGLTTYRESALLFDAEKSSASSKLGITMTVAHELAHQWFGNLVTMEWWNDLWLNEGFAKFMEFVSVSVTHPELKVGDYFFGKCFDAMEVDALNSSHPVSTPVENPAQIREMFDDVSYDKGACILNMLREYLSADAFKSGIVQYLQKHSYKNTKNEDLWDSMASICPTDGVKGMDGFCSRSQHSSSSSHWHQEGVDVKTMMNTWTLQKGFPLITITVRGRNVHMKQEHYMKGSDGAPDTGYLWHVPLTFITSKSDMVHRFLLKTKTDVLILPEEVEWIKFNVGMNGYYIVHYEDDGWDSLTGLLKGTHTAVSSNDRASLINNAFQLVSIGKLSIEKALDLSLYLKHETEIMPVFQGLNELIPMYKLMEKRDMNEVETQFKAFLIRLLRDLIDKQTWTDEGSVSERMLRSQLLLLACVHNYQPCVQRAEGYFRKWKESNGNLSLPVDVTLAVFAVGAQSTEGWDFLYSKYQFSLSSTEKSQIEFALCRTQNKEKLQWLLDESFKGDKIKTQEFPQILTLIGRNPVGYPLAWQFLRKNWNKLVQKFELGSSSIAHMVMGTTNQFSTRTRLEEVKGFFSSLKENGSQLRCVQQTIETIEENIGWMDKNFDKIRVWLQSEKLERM
Assay: Inhibition of recombinant human C-terminal His6-tagged ERAP1 expressed in baculovirus infected BTA-TN-5B1-4 insect cells using WRCYEKMALK as substrate measured after 10 mins by LC-MS analysis
assay_readout: IC50 (µM)
Report only the number, with the unit µM understood.

[Q] Fetch value of IC50 on Endoplasmic reticulum aminopeptidase 1 (Homo sapiens, UniProt Q9NZ08) for "COc1ccc(C(=O)O)cc1S(=O)(=O)Nc1cc(C(F)(F)F)ccc1N1CCCCC1" .
[A] 5.3

* * *

Target: UniProtKB Q9NZ08
Assay: Competitive inhibition of recombinant human C-terminal His6-tagged ERAP1 expressed in baculovirus infected BTA-TN-5B1-4 insect cells using varying levels of LVAFKARKF as substrate measured at 2.5 mins interval for 20 mins by ABTS reagent based horseradish peroxidase-coupled Michaelis-Menten equation analysis
assay_readout: pKi
# log scale: pKi equals minus log10 of the concentration in mol/L

[Q] Tell me measured pKi for "COc1ccc(C(=O)O)cc1S(=O)(=O)Nc1cc(C(F)(F)F)ccc1N1CCCCC1" please.
[A] 5.42

* * *

Molecular target: Endoplasmic reticulum aminopeptidase 1 (Homo sapiens, UniProt Q9NZ08)
Experiment: Inhibition of ERAP1 in human HeLa cells stably expressing H-2 Kb infected with vaccinia virus containing ss-LEQLE-SIINFEKL epitope assessed as suppression of ss-LEQLE-SIINFEKL binding to MHC1 H-2 Kb at cell surface by measuring reduction in 25D1 staining measured after 16 to 24 hrs by flow cytometric method
Assay type: cell-based
assay_readout: pIC50
# log scale: pIC50 equals minus log10 of the concentration in mol/L

[Q] Tell me measured pIC50 for "COc1ccc(C(=O)O)cc1S(=O)(=O)Nc1cc(C(F)(F)F)ccc1N1CCCCC1" please.
[A] 6.00

* * *

Biological target: UniProtKB Q9NZ08
Experiment: Competitive inhibition of recombinant human C-terminal His6-tagged ERAP1 expressed in baculovirus infected BTA-TN-5B1-4 insect cells using varying levels of L-pNA as substrate incubated for 1 hr and measured for 5 to 10 mins by […] Michaelis-Menten equation analysis
assay_readout: Ki (µM)
Report only the number, with the unit µM understood.

[Q] Tell me measured Ki for "N=C(NCCc1c[nH]c2ccccc12)NS(=O)(=O)c1cc(F)ccc1F" please.
[A] 51.7
